log10 of IC50 values, listed per item
- EXPERIMENTAL_TARGET: L858R/T790M/C797S triple mutant EGFR (Homo sapiens, UniProt P00533, C797S/L858R/T790M)
- Construct: purchased Signalchem
- Sequence (P00533 25-1210 T790M/C797S/L858R): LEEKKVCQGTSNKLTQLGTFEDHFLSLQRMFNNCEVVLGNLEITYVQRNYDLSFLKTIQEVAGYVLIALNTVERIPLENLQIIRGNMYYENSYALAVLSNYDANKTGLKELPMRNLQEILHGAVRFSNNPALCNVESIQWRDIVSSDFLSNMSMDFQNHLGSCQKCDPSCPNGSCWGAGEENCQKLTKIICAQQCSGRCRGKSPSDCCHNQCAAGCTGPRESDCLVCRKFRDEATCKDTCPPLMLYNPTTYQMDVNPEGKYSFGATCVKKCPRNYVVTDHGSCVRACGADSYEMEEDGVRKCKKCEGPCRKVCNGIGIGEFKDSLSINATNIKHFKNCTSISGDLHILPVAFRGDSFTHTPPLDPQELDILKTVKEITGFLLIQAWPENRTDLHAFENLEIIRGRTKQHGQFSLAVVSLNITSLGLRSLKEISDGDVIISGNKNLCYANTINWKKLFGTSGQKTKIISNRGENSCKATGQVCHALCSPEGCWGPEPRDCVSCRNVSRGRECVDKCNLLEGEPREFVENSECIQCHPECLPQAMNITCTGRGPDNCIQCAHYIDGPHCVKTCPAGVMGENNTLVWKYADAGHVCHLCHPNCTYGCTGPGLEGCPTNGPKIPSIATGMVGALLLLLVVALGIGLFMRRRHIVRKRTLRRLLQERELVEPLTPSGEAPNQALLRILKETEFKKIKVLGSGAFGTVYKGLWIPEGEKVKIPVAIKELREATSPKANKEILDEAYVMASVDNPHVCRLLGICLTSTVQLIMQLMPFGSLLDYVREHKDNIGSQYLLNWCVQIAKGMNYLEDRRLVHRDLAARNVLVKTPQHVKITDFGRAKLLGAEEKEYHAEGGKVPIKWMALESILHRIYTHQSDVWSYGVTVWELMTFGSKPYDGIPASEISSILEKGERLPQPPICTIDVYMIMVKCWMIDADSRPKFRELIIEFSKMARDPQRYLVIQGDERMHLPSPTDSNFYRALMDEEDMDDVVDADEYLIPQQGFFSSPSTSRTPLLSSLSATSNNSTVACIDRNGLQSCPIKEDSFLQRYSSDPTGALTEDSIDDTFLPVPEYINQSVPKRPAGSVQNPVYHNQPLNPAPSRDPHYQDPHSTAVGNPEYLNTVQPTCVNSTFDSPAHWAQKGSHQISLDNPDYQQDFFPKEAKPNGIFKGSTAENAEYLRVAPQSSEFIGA
- TEST_SUMMARY: Enzymology experiment in vitro (HTRF/FRET kinase activity), L858R/T790M/C797S triple mutant EGFR
- Assay type: biochemical
- MEASUREMENT_CONTEXT: HTRF KinEASE-TK, read-out: EGFR (L858R/T790M/C797S) IC50
- Procedure: 1. Experimental Materials HTRF KinEASE-TK kit detection reagent, purchased from Cisbio 1) 10 nL of gradient diluted compound was transferred into a 384-well experimental plate using Echo 550 (Labcyte). 2) 5 μL of 2×EGFR enzyme solution was added to the 384-well experimental plate and incubated at room temperature for 10 minutes. 3) 5 μL of 2× substrate solution containing polypeptide and ATP was added to the 384-well experimental plate and incubated at room temperature for 40 minutes. […]
# log10 transformed; quantity=IC50; unit=nM

Would you please look over these solved cases?
COc1cc(N2CCOC(C)C2)c(-c2cnn(C)c2)cc1Nc1ncc(Br)c(Nc2ccc3nccnc3c2P(C)(C)=O)n1 (stereo not shown) [compound 134]	-0.68
COc1cc(N2CCC(C)(OC)CC2)c(-c2cnn(C)c2)cc1Nc1ncc(Br)c(Nc2ccc3nccnc3c2P(C)(C)=O)n1 [compound 188]	-0.37

For the molecule COc1cc(N2CCC(N(C)C)C(F)C2)c(-c2cnn(C)c2)cc1Nc1ncc(Br)c(Nc2ccc3nccnc3c2P(C)(C)=O)n1 (stereo not shown) [compound 216] , what log10 of IC50 is on record?
-0.54

For the molecule COc1cc(N2CC[C@@H]3CCN(CC4CC4)[C@@H]3C2)c(-c2cnn(C)c2)cc1Nc1ncc(Br)c(Nc2ccc3nccnc3c2P(C)(C)=O)n1 (single isomer, unassigned) [234b] , what log10 of IC50 is on record?
-0.43

For the molecule COc1cc(N2CCN(CCN3CCOCC3)CC2)c(-c2cnn(C)c2)cc1Nc1ncc(Br)c(Nc2ccc3nccnc3c2P(C)(C)=O)n1 [compound 191] , what log10 of IC50 is on record?
-0.64

----------
- EXPERIMENTAL_TARGET: L858R/T790M/C797S triple mutant EGFR (Homo sapiens, UniProt P00533, C797S/L858R/T790M)
- Construct: purchased Signalchem
- TEST_SUMMARY: Enzymology experiment in vitro (HTRF/FRET kinase activity), L858R/T790M/C797S triple mutant EGFR
- Type: biochemical
- MEASUREMENT_CONTEXT: HTRF KinEASE-TK, read-out: EGFR (L858R/T790M/C797S) IC50
IC50 values, listed per item
Provide the reading as a plain figure in nM.

COc1cc(N2CCOCC2)c(-c2cccs2)cc1Nc1ncc(Br)c(Nc2ccc3nccnc3c2P(C)(C)=O)n1	3.95

For the compound COc1cc(N2CCC3(CC2)CCN(C(C)CF)CC3)c(-c2cnn(C)c2)cc1Nc1ncc(Br)c(Nc2ccc3nccnc3c2P(C)(C)=O)n1 (stereo not drawn) , what IC50 is on record?
0.4

For the compound COc1cc(N2CCC3(CCN(C)CC3)CC2)c(-c2cnn(C)c2)cc1Nc1ncc(Br)c(Nc2ccccc2N(C)S(=O)(=O)C2CC2)n1 , what IC50 is on record?
1.12

For the compound COc1cc(N2CCN(C(N)=O)CC2)c(-c2cnn(C)c2)cc1Nc1ncc(Br)c(Nc2ccc3nccnc3c2P(C)(C)=O)n1 , what IC50 is on record?
0.26

For the compound COc1nc(N2CCOCC2)c(-c2cn(C)nc2C)cc1Nc1ncc(Br)c(Nc2ccc3nccnc3c2P(C)(C)=O)n1 , what IC50 is on record?
3.18

For the compound COc1cc(N2CCN(C(C)C)C(CF)C2)c(-c2cnn(C)c2)cc1Nc1ncc(Br)c(Nc2ccc3nccnc3c2P(C)(C)=O)n1 (stereo not drawn) , what IC50 is on record?
0.73
